Parameter Papp A→B: see the listing below.
- assay-details: Apparent permeability across apical to basolateral side in human Caco2 cells
- experimental-parameters: Caco-2
observation-type: Papp A→B (×10⁻⁶ cm/s)

| compound | result-value |
| --- | --- |
| Cc1cc(-c2ccc(C(=O)[C@@H]3CCCC[C@H]3C(=O)Nc3cn(C)nc3C(N)=O)c(F)c2)[nH]n1 | 17 |
| Cn1ncc(NC(=O)[C@@H]2CCCC[C@H]2C(=O)c2ccc(-c3cc[nH]n3)cc2)c1C(F)(F)F | 59 |
| Cc1nn(C)cc1NC(=O)[C@@H]1CCCC[C@H]1C(=O)c1ccc(-c2cc[nH]n2)cc1F (racemic) | 34 |
| Cc1cc(-c2ccc(C(=O)[C@@H]3CCCC[C@H]3C(=O)Nc3cn(C)nc3C)cc2)n[nH]1 | 20 |
| COc1cc(NC(=O)[C@@H]2CCCC[C@H]2C(=O)c2ccc(-c3cc[nH]n3)cc2)ncn1 | 69 |
| Cc1cc(-c2ccc(C(=O)[C@@H]3CCCC[C@H]3C(=O)Nc3cn(C)nc3C#N)cc2)n[nH]1 | 27 |
| CC(C)(O)CNC(=O)c1cnc(NC(=O)[C@@H]2CCCC[C@H]2C(=O)c2ccc(-c3cc[nH]n3)cc2)cn1 (racemic) | 3 |
| O=C(Nc1cnn2cccnc12)[C@@H]1CCCC[C@H]1C(=O)c1ccc(-c2cc[nH]n2)cc1 | 12 |
| Cc1cc(-c2ccc3c([C@@H]4C[C@H]5C[C@H]5C[C@H]4C(=O)Nc4cn(C)nc4C(N)=O)noc3c2)n[nH]1 | 23 |
| Cc1nn(C)cc1NC(=O)[C@@H]1CCCC[C@H]1C(=O)c1ccc(-c2cc[nH]n2)cc1 (racemic) | 26 |
| Cc1cc(-c2ccc(C(=O)[C@@H]3CCCC[C@H]3C(=O)Nc3cn(C)nc3C(N)=O)cc2)n[nH]1 | 22 |
| Cc1cc(-c2ccc3c([C@@H]4CCCC[C@H]4C(=O)Nc4cn(C)nc4C(N)=O)noc3c2)n[nH]1 | 7 |
| Cn1ncc(NC(=O)[C@@H]2C[C@@H]3C[C@@H]3C[C@H]2C(=O)c2ccc(-c3cc[nH]n3)cc2)c1C(F)(F)F | 59 |
| Cn1cc(NC(=O)[C@@H]2C[C@@H]3C[C@@H]3C[C@H]2C(=O)c2ccc(-c3cc[nH]n3)cc2)c(C(F)(F)F)n1 | 57 |

* * *

- assayed-system: Arachidonate 5-lipoxygenase-activating protein (Homo sapiens)
- Sequence (P20292 whole entry): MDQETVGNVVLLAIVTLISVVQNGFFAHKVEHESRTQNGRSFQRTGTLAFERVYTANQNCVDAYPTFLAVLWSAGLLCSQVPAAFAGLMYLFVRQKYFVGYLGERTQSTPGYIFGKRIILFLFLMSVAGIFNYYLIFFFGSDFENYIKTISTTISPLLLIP
- assay-details: Inhibition of FLAP in human whole blood assessed as reduction in calcium ionophore-stimulated LTB4 production preincubated for 30 mins followed by calcium ionophore stimulation and measured after 20 mins by EIA
- Assay type: tissue-based

| compound | fpIC50 |
| --- | --- |
| O=C(Nc1cnn2cccnc12)[C@@H]1CCCC[C@H]1C(=O)c1ccc(-c2cc[nH]n2)cc1 | 8.4 |
| Cn1ncc(NC(=O)[C@@H]2CCCC[C@H]2C(=O)c2ccc(-c3cc[nH]n3)cc2)c1C(F)(F)F | 8.4 |
| Cc1nn(C)cc1NC(=O)[C@H]1CCCC[C@@H]1C(=O)c1ccc(-c2cc[nH]n2)cc1 | 5.8 |
| COc1cc(NC(=O)[C@@H]2CCCC[C@H]2C(=O)c2ccc(-c3cc[nH]n3)cc2)ncn1 | 9.3 |
| Cn1ncc(NC(=O)[C@@H]2C[C@@H]3C[C@@H]3C[C@H]2C(=O)c2ccc(-c3cc[nH]n3)cc2)c1C(F)(F)F | 8.5 |
| Cc1cc(-c2cc[nH]n2)ccc1C(=O)[C@@H]1CCCC[C@H]1C(=O)Nc1cn(C)nc1C (racemic) | 6.9 |
| Cc1nn(C)cc1NC(=O)[C@@H]1CCCC[C@H]1C(=O)c1ccc(-c2ccccn2)cc1 (racemic) | 6.8 |
| Cc1cnn(-c2ccc(C(=O)[C@@H]3CCCC[C@H]3C(=O)Nc3cccc(C(N)=O)c3)cc2)c1 (racemic) | 7.4 |

* * *

Entries and their measured fpIC50 follow.
- assayed-system: Arachidonate 5-lipoxygenase-activating protein (Homo sapiens)
- assay-details: Inhibition of FLAP in human whole blood assessed as reduction in calcium ionophore-stimulated LTB4 production preincubated for 30 mins followed by calcium ionophore stimulation and measured after 20 mins by EIA
- Format: tissue-based
observation-type: fpIC50

| molecule | observation-type | result-value |
| --- | --- | --- |
| Cc1cc(-c2ccc(C(=O)[C@@H]3CCCC[C@H]3C(=O)Nc3cn(C)nc3C#N)cc2)n[nH]1 | fpIC50 | 8.5 |
| Cn1cc(NC(=O)[C@@H]2CCCC[C@H]2C(=O)c2ccc(-c3cc[nH]n3)cc2)c(OC(F)F)n1 | fpIC50 | 8.5 |
| Cc1nn(C)cc1NC(=O)[C@@H]1CCCC[C@H]1C(=O)c1ccc(-c2cc[nH]n2)nc1 (racemic) | fpIC50 | 5.8 |
| Cc1nn(C)cc1NC(=O)[C@@H]1CCCC[C@H]1C(=O)c1ccc(-c2cc[nH]n2)cc1 (racemic) | fpIC50 | 7.1 |

* * *

- assay-details: Metabolic stability in human hepatocytes assessed as parent compound remaining
- Assay type: ADME, cell-based, Hepatocyte
Entries and their Stability

| compound-structure-string | Stability |
| --- | --- |
| Cn1cc(NC(=O)[C@@H]2C[C@@H]3C[C@@H]3C[C@H]2C(=O)c2ccc(-c3cc[nH]n3)cc2)c(C(F)(F)F)n1 | 76% |
| Cc1cc(-c2ccc3c([C@@H]4C[C@H]5C[C@H]5C[C@H]4C(=O)Nc4cn(C)nc4C(N)=O)noc3c2)n[nH]1 | 69% |
| Cn1cc(NC(=O)[C@@H]2CCCC[C@H]2C(=O)c2ccc(-c3cc[nH]n3)cc2)c(C(F)(F)F)n1 | 62% |
| Cc1cc(-c2ccc3c([C@@H]4CCCC[C@H]4C(=O)Nc4cn(C)nc4C(N)=O)noc3c2)n[nH]1 | 68% |
| Cn1ncc(NC(=O)[C@@H]2CCCC[C@H]2C(=O)c2ccc(-c3cc[nH]n3)cc2)c1C(F)(F)F | 83% |
| Cc1cc(-c2ccc(C(=O)[C@@H]3CCCC[C@H]3C(=O)Nc3cn(C)nc3C)cc2)n[nH]1 | 72% |
| Cc1cc(-c2ccc(C(=O)[C@@H]3CCCC[C@H]3C(=O)Nc3cn(C)nc3C(N)=O)cc2)n[nH]1 | 79% |

* * *

Measured inhibition at 10 µM, listed per entry.
- assayed-system: UniProtKB Q12809
- Sequence (Q12809 whole entry): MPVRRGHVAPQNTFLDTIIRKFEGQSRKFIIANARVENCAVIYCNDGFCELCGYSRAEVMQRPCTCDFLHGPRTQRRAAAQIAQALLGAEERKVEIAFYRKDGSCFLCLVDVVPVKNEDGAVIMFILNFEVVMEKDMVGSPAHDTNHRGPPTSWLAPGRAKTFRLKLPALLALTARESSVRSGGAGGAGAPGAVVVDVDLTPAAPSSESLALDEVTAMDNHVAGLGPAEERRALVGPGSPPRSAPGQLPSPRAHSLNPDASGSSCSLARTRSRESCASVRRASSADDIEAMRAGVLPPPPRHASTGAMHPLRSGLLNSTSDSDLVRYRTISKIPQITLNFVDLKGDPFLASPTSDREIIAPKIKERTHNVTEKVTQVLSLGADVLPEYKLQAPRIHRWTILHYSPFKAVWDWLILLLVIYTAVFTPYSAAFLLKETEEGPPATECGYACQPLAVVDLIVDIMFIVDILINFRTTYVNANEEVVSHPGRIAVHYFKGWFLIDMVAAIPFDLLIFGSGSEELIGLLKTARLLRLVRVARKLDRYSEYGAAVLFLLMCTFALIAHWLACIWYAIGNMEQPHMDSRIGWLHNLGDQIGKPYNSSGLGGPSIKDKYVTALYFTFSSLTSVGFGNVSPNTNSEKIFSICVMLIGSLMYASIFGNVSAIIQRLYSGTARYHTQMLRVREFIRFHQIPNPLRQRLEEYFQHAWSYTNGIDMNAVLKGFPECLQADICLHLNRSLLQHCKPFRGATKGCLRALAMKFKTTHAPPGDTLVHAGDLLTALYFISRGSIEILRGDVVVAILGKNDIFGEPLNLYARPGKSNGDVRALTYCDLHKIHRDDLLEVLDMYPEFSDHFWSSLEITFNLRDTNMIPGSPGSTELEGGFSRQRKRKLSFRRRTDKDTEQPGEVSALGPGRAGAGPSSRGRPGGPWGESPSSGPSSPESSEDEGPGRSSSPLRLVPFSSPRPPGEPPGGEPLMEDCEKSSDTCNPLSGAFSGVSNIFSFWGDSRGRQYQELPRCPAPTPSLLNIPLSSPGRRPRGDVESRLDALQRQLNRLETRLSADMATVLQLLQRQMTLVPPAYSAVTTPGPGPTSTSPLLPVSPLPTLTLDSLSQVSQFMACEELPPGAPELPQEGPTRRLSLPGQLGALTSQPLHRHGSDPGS
- assay-details: Inhibition of human ERG at 10 uM high-throughput electrophysiology assay relative to control
observation-type: inhibition at 10 µM

| compound | observation-type | result-value |
| --- | --- | --- |
| Cc1cc(-c2ccc(C(=O)[C@@H]3CCCC[C@H]3C(=O)Nc3cn(C)nc3C#N)cc2)n[nH]1 | inhibition at 10 µM | 23% |
| CC(C)(O)CNC(=O)c1cnc(NC(=O)[C@@H]2CCCC[C@H]2C(=O)c2ccc(-c3cc[nH]n3)cc2)cn1 (racemic) | inhibition at 10 µM | 22% |
| Cn1ncc(NC(=O)[C@@H]2CCCC[C@H]2C(=O)c2ccc(-c3cc[nH]n3)cc2)c1C(F)(F)F | inhibition at 10 µM | 32% |
| Cc1cc(-c2ccc3c([C@@H]4C[C@H]5C[C@H]5C[C@H]4C(=O)Nc4cn(C)nc4C(N)=O)noc3c2)n[nH]1 | inhibition at 10 µM | 12% |

* * *

- assayed-system: Arachidonate 5-lipoxygenase-activating protein (Homo sapiens)
- assay-details: Inhibition of [3H]MK0591 binding to human FLAP expressed in […] cell membranes measured after 60 to 80 mins by scintillation counting method
pIC50: −log10 of the molar value.
observation-type: pIC50

| molecule | result-value |
| --- | --- |
| Cc1nn(C)cc1NC(=O)[C@H]1CCCC[C@@H]1C(=O)c1ccc(-c2cc[nH]n2)cc1 | 5.70 |
| Cc1noc(C)c1NC(=O)[C@@H]1CCCC[C@H]1C(=O)c1ccc(-c2cc[nH]n2)cc1 (racemic) | 6.70 |
| CC(C)(CNC(=O)[C@@H]1CCCC[C@H]1C(=O)c1ccc(-c2cc[nH]n2)cc1)S(C)(=O)=O | 7.20 |

* * *

Below, each entry is listed with its recorded Vd.
- assay-details: Volume of distribution at steady state in po or iv dosed Sprague-Dawley rat
- Type: ADME, organism-based
- experimental-parameters: in vivo, read-out: Vdss

| compound | Vd [L/kg] |
| --- | --- |
| Cn1cc(NC(=O)[C@@H]2CCCC[C@H]2C(=O)c2ccc(-c3cc[nH]n3)cc2)c(C(F)(F)F)n1 | 1 |
| Cn1ncc(NC(=O)[C@@H]2C[C@@H]3C[C@@H]3C[C@H]2C(=O)c2ccc(-c3cc[nH]n3)cc2)c1C(F)(F)F | 1.1 |
| Cc1cc(-c2ccc(C(=O)[C@@H]3CCCC[C@H]3C(=O)Nc3cn(C)nc3C)cc2)n[nH]1 | 0.83 |
| Cc1nn(C)cc1NC(=O)[C@@H]1CCCC[C@H]1C(=O)c1ccc(-c2cc[nH]n2)cc1F (racemic) | 1.1 |

Origin of measurements: ChEMBL document CHEMBL4350955
